test: in vivo; conditions: Balb/C, mouse, plasma, oral, 100 mg/kg
recorded endpoint: bioavailability

Task: Please report bioavailability for the following compound: "COc1ccc(I)c(Sc2nc3c(N)ncnc3n2CCCNC(C)(C)C)c1"
Result: ≥ 50%

* * *

experiment: in vivo; settings: Balb/C, mouse, plasma, iv, 10 mg/kg
recorded endpoint: clearance (mL/min/kg)
One number for each entry, in mL/min/kg.

Task: Please report clearance for the following compound: CCC(C)NCCCn1c(Sc2cc(OC)ccc2I)nc2c(N)ncnc21 (racemic) [Compound 109]
Result: 33

* * *

assay: in vivo; details: Balb/C, mouse, plasma, po, 100 mg/kg
recorded endpoint: Cmax (µM)
Answers are plain numbers, in µM.

Task: Please report Cmax for the following compound: "CCC(CC)NCCCn1c(Sc2cc(OC)ccc2I)nc2c(N)ncnc21"
Result: 12

* * *

assay: Pharmacokinetics in Balb/C mice (IV 10 mg/kg, PO 100 mg/kg); details: PO 100 mg/kg, H3PO4 salts
Answer each item with its documented PO Parameters T1/2.
One number for each entry, in min.

Here's what some known entries look like.
Task: Please report PO Parameters T1/2 for the following compound: "COc1ccc(I)c(Sc2nc3c(N)ncnc3n2CCCNC(C)(C)C)c1"
Result: 54

Task: Please report PO Parameters T1/2 for the following compound: CCC(C)NCCCn1c(Sc2cc(OC)ccc2I)nc2c(N)ncnc21 (racemic)
Result: 42

Task: Please report PO Parameters T1/2 for the following compound: "COc1ccc(I)c(Sc2nc3c(N)ncnc3n2CCCNC(C)C)c1.O=P(O)(O)O"
Result: 90

More entries:
Task: Please report PO Parameters T1/2 for the following compound: "CCC(CC)NCCCn1c(Sc2cc(OC)ccc2I)nc2c(N)ncnc21"
Result: 36

* * *

tested on: HER-2 receptor (Hsp90 client) in MCF-7 cells; assay: HER-2 degradation assay (MCF-7 cells, 16 h, phycoerythrin-labeled antibody and flow cytometry); type: cell-based, human; conditions: 9-N-alkyl position SAR; head prints no unit, nM; read-out: HER-2
recorded endpoint: IC50 (nM)
Numbers only, in nM.

Task: Please report IC50 for the following compound: Nc1ncnc2c1nc(Sc1nc3cccc(Cl)c3s1)n2CCNC1CC1 [Compound 264]
Result: 110

* * *

experiment: Solubility in simulated gastric fluid, simulated intestinal fluid and serum; type: physicochemical; details: solubility in simulated intestinal fluid, PH 6.5
Answer each item with its documented Intestinal (PH 6.5).
Give bare numbers, in µg/mL.

Here's what some known entries look like.
Task: Please report Intestinal (PH 6.5) for the following molecule: "CC(=O)OCCCn1c(Sc2nc3cccc(Cl)c3s2)nc2c(N)ncnc21"
Result: 16

Task: Please report Intestinal (PH 6.5) for the following molecule: "CC(=O)OCCCCn1c(Sc2nc3cccc(Cl)c3s2)nc2c(N)ncnc21"
Result: 3

Task: Please report Intestinal (PH 6.5) for the following molecule: "CC(C)(C)CNCCn1c(Sc2nc3cccc(Cl)c3s2)nc2c(N)ncnc21"
Result: 6

Look up Intestinal (PH 6.5) for the entries below, preserving their order.
1. CCCCn1c(Sc2nc3cccc(OC)c3s2)nc2c(N)ncnc21
2. Nc1ncnc2c1nc(Sc1nc3cccc(Cl)c3s1)n2CCNC1CC1
3. CCOP(=O)(CCn1c(Sc2nc3cncc(Cl)c3s2)nc2c(N)ncnc21)OCC
4. CC(C)(C)NCCCn1c(Sc2nc3cccc(Cl)c3s2)nc2c(N)ncnc21
5. N#CCCCCn1c(Sc2nc3cccc(Cl)c3s2)nc2c(N)ncnc21

Result:
1: 2; 2: 21; 3: 38.3; 4: 137.7; 5: 4.4

* * *

Answer each item with its documented pIC50.
test system: HER-2 receptor (Hsp90 client) in MCF-7 cells; test: HER-2 degradation assay (MCF-7 cells, 16 h, phycoerythrin-labeled antibody and flow cytometry); type: cell-based, human; conditions: Homo sapiens, MCF7, read-out: HER-2
Numbers only, as −log10 of the molar value.

Here's what some known entries look like.
Task: Please report pIC50 for the following molecule: "CC(=O)OCCCn1c(Sc2nc3cncc(Cl)c3s2)nc2c(N)ncnc21"
Result: 6.77

Task: Please report pIC50 for the following molecule: "CCCCn1c(Sc2nc3cncc(Br)c3s2)nc2c(N)ncnc21"
Result: 6.40

Task: Please report pIC50 for the following molecule: "CCn1c(Sc2nc3cccc(Cl)c3s2)nc2c(N)ncnc21"
Result: 6.70

Task: Please report pIC50 for the following molecule: "CC(C)NCCCn1c(Sc2nc3cccc(Cl)c3s2)nc2c(N)ncnc21"
Result: 6.77

Task: Please report pIC50 for the following molecule: "Nc1ncnc2c1nc(Sc1nc3cccc(Cl)c3s1)n2CCCCO"
Result: 6.82

Look up pIC50 for the entries below, preserving their order.
1. CCCn1c(Sc2nc3cccc(Cl)c3s2)nc2c(N)ncnc21
2. CC(=O)OCCCCn1c(Sc2nc3cccc(Cl)c3s2)nc2c(N)ncnc21
3. CC(C)(C)NCCCn1c(Sc2nc3cccc(Cl)c3s2)nc2c(N)ncnc21

Result:
6.60
6.89
6.82

* * *

system: MCF-7 breast cancer cells; test: MTS cell growth inhibition assay; format: cell-based, human; conditions: Homo sapiens, MCF7, 120 h; MCF-7 cells, 5 days; SEM 9-21% of the mean
recorded endpoint: pIC50
Give bare numbers, as −log10 of the molar value.

Here's what some known entries look like.
Task: Please report pIC50 with MCF-7 breast cancer cells for item "C#CCCCn1c(Sc2cc(OC)ccc2I)nc2c(N)ncnc21" .
Result: 6.15

Task: Please report pIC50 with MCF-7 breast cancer cells for item "COc1ccc(I)c(Sc2nc3c(N)ncnc3n2CCCNC(C)(C)C)c1" .
Result: 6.70

Task: Please report pIC50 with MCF-7 breast cancer cells for item "CCC(CC)NCCCn1c(Sc2cc(OC)ccc2I)nc2c(N)ncnc21" .
Result: 6.70

More entries:
Task: Please report pIC50 with MCF-7 breast cancer cells for item CCC(C)NCCCn1c(Sc2cc(OC)ccc2I)nc2c(N)ncnc21 (racemic) .
Result: 6.70

* * *

assay: Solubility in simulated gastric fluid, simulated intestinal fluid and serum; type: physicochemical; conditions: solubility in serum, PH 7.4
Answer each item with its documented Serum (PH 7.4).
Give bare numbers, in µg/mL.

Here's what some known entries look like.
Task: Please report Serum (PH 7.4) for the following compound: "CC(C)(C)CNCCn1c(Sc2nc3cccc(Cl)c3s2)nc2c(N)ncnc21"
Result: 4.9

Task: Please report Serum (PH 7.4) for the following compound: "CCCCn1c(Sc2nc3cccc(OC)c3s2)nc2c(N)ncnc21"
Result: 18

Task: Please report Serum (PH 7.4) for the following compound: "CC(C)(C)NCCCn1c(Sc2nc3cccc(Cl)c3s2)nc2c(N)ncnc21"
Result: 198.7

Task: Please report Serum (PH 7.4) for the following compound: "N#CCCCCn1c(Sc2nc3cccc(Cl)c3s2)nc2c(N)ncnc21"
Result: 31.3

Task: Please report Serum (PH 7.4) for the following compound: "CCOP(=O)(CCn1c(Sc2nc3cncc(Cl)c3s2)nc2c(N)ncnc21)OCC"
Result: 14

Look up Serum (PH 7.4) for the entries below, preserving their order.
1. Nc1ncnc2c1nc(Sc1nc3cccc(Cl)c3s1)n2CCNC1CC1
2. CC(=O)OCCCn1c(Sc2nc3cccc(Cl)c3s2)nc2c(N)ncnc21

Result:
1: 59; 2: 9

* * *

assay: Solubility in simulated gastric fluid, simulated intestinal fluid and serum; type: physicochemical; conditions: solubility in simulated gastric fluid, PH 2.0
Rule: criterion met for Gastric (PH 2.0) not less than 60 µg/mL, criterion not met for anything less.

Previously resolved entries follow.
Task: Hello, I need to know if "CCOP(=O)(CCn1c(Sc2nc3cncc(Cl)c3s2)nc2c(N)ncnc21)OCC" has measured Gastric (PH 2.0) not below 60 µg/mL. Thanks!
Result: criterion met

Task: Hello, I need to know if "CC(=O)OCCCn1c(Sc2nc3cccc(Cl)c3s2)nc2c(N)ncnc21" has measured Gastric (PH 2.0) not below 60 µg/mL. Thanks!
Result: criterion met

Task: Hello, I need to know if "CC(=O)OCCCCn1c(Sc2nc3cccc(Cl)c3s2)nc2c(N)ncnc21" has measured Gastric (PH 2.0) not below 60 µg/mL. Thanks!
Result: criterion not met

Task: Hello, I need to know if "Nc1ncnc2c1nc(Sc1nc3cccc(Cl)c3s1)n2CCNC1CC1" has measured Gastric (PH 2.0) not below 60 µg/mL. Thanks!
Result: criterion met

Task: Hello, I need to know if "CC(=O)OCCn1c(Sc2nc3cncc(Br)c3s2)nc2c(N)ncnc21" has measured Gastric (PH 2.0) not below 60 µg/mL. Thanks!
Result: criterion met

Okay, next one:
Task: Hello, I need to know if "CCCCn1c(Sc2nc3cccc(OC)c3s2)nc2c(N)ncnc21" has measured Gastric (PH 2.0) not below 60 µg/mL. Thanks!
Result: criterion not met

* * *

system: HER-2 receptor (Hsp90 client) in MCF-7 cells; assay: HER-2 degradation assay (MCF-7 cells, 16 h, phycoerythrin-labeled antibody and flow cytometry); format: cell-based, human; settings: Homo sapiens, MCF7, read-out: HER-2
recorded endpoint: IC50 (nM)
Answers are plain numbers, in nM.

Task: Please report IC50 for the following compound: N#CCCCCn1c(Sc2nc3cccc(Cl)c3s2)nc2c(N)ncnc21 [Compound 284]
Result: 110

Look up IC50 for the entries below, preserving their order.
1. Nc1ncnc2c1nc(Sc1nc3cccc(Cl)c3s1)n2CCCO [Compound 245]
2. CC(=O)OCCn1c(Sc2nc3cccc(Cl)c3s2)nc2c(N)ncnc21 [Compound 241]
3. CC(=O)OCCCn1c(Sc2nc3cccc(Cl)c3s2)nc2c(N)ncnc21 [Compound 242]
4. CCCCn1c(Sc2nc3cccc(Cl)c3s2)nc2c(N)ncnc21 [Compound 232]

Result:
[150, 150, 90, 180]
